B1: SPACA3 (parent)
chain: FTSGFNAAALDYEADGSTNNGIFQ

# Variants of: B1
# experiment: protein stability index of a GFP-peptide fusion (GPS, HEK-293T) (PSI 1-6); higher = more stable;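 also: lentivirally expressed fusions sorted by FACS into six bins by GFP to DsRed ratio, PSI derived from sequencing read proportions per bin multiplied by bin number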
# measurement.setup: c terminus: a fixed tail appended
Listing of entries alongside the reported protein stability index.
Enter a number only.

Check out these entries, answers already filled in.
FTSGFNAAAVDYEADGSTNNGIFQ [L10V]    2.33
FTSGFNAAALDYEADGSTNNGIFE [Q24E]    2.33
FTSGWNAAALDYEADGSTNNGIFQ [F5W]    3.06
FTSGFNAAALDFEADGSTNNGIFQ [Y12F]    1.9
FTSGFNAAAGDYEADGSTNNGIFQ [L10G]    2.38
FTSGFNAAALDYEADGSTNNGKFQ [I22K]    1.93

In: Using the record for FQSGFNAAALDYEADGSTNNGIFQ [T2Q] , state its measured protein stability index.
Out: 2.26

In: Using the record for FTSGFNAAALDYEATGSTNNGIFQ [D15T] , state its measured protein stability index.
Out: 1.98
